- TEST_SUMMARY: NCI Yeast Anticancer Drug Screen. Data for the cln2 rad14 strain (AID 165)
- MEASUREMENT_CONTEXT: S. cerevisiae cln2 rad14 strain, at 50.0 µM
Compounds without any hit were thinned out: in the full panel of roughly 79,000, 15% have a hit. Active and inactive are the calls of the source. Cut-off read from the data, not from the text of the source: active = growth inhibition above about 70%; inactive = the rest.
Outcome codes: active, inactive

compound="O=C(Nc1ccccc1)C(c1ccccc1)N(Nc1ccccc1Cl)c1ccccc1Cl (configuration not stated)" discrete_label=inactive
compound=NC(=Nc1ccccc1)c1ccc(Cl)cc1 discrete_label=active
compound="CC(O)CNC(C)(C)CN (configuration not stated)" discrete_label=inactive
compound=COc1ccc(/C=C2\N=C(c3ccc(Cl)cc3)OC2=O)cc1Br discrete_label=inactive
compound=Cc1ccc(S(=O)(=O)O/C=C2/CCOC2=O)cc1 discrete_label=inactive
compound=NNC(=O)c1oc2ccccc2c1CN(CCO)CCO discrete_label=inactive
compound=O=C1c2c(nc3ccccc3c2-c2ccccc2)CN1Nc1ccccn1 discrete_label=inactive
compound="OC1OCc2cc3ccccc3cc21 (configuration not stated)" discrete_label=inactive
compound=O=C(CC(=O)n1nc(-c2ccccc2)c(N=Nc2ccc(Cl)cc2)c1-c1ccccc1)Nc1ccc(Cl)cc1 discrete_label=inactive
compound=Nc1ccncc1CCc1ccccc1 discrete_label=inactive
compound=COc1cc(/C=C/C(=O)O)cc(OC)c1O discrete_label=inactive
compound=CCOC(=O)c1ccc(NC(NC(=O)CC)(C(F)(F)F)C(F)(F)F)cc1 discrete_label=inactive

Attribution: PubChem BioAssay (NCI)
